Record form. Attribute: inhibition at 10 µM. Fill in for each entry.
biological target: NA transporter (Rattus norvegicus, UniProt Q9WTR4); construct: synaptosomes from rat brain regions were freshly isolated; from tissue; host or cells: P2 synaptosome fraction from hypothalamus of male rat brain; assay: Noradrenalin uptake inhibition (NA-uptake) in synaptosomes; assay type: biochemical; conditions: rat hypothalamus synaptosomes
Sequence (Q9WTR4 1-597): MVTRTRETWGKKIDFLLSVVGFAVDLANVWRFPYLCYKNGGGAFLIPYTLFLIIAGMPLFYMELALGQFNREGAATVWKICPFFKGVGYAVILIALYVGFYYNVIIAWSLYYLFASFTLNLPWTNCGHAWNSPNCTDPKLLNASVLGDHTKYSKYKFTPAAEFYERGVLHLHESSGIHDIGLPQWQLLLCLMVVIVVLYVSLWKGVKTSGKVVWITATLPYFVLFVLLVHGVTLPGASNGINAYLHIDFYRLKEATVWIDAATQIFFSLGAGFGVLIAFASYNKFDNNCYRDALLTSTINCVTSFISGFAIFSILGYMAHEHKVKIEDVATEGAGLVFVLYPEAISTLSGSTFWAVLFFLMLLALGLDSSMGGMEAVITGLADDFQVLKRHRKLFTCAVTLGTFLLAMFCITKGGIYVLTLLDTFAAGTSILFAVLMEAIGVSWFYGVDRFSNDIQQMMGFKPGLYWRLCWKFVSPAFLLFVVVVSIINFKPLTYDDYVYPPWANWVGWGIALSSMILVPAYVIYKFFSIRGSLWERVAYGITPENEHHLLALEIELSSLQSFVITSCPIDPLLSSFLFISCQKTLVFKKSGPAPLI
The reply should be a number in %, with the unit left off.

QUERY: Please supply the value of reported inhibition at 10 µM for the item "O=C(NCc1cccs1)C1=NOC2(CCN(S(=O)(=O)c3ccc([N+](=O)[O-])cc3)CC2)C1"
RESULT: 44

QUERY: Please supply the value of reported inhibition at 10 µM for the item "O=C(NCc1cccs1)C1=NOC2(CCN(C(=O)COc3cccc(Cl)c3)CC2)C1"
RESULT: 49

QUERY: Please supply the value of reported inhibition at 10 µM for the item "O=C(NCCc1ccccc1)C1=NOC2(CCN(S(=O)(=O)Cc3ccccc3)CC2)C1"
RESULT: 54

QUERY: Please supply the value of reported inhibition at 10 µM for the item CC(NC(=O)C1=NOC2(CCN(S(=O)(=O)c3cc(Cl)ccc3Cl)CC2)C1)C(=O)Nc1ccc2ccccc2c1 (centres unmarked)
RESULT: 48

QUERY: Please supply the value of reported inhibition at 10 µM for the item "Cc1onc(-c2c(F)cccc2Cl)c1C(=O)N1CCC2(CC1)CC(C(=O)NCc1ccccc1)=NO2"
RESULT: 47

QUERY: Please supply the value of reported inhibition at 10 µM for the item CCOC(=O)N1CCC(NC(=O)C2=NOC3(CCN(C(=O)C4CC4c4ccccc4)CC3)C2)CC1 (centres unmarked)
RESULT: 50

QUERY: Please supply the value of reported inhibition at 10 µM for the item "O=C(NCC(c1ccccc1)c1ccccc1)C1=NOC2(CCN(S(=O)(=O)c3ccc(Cl)s3)CC2)C1"
RESULT: 58

QUERY: Please supply the value of reported inhibition at 10 µM for the item "O=C(NCC1CC1)C1=NOC2(CCN(C(=O)c3ccc(OC(F)(F)F)cc3)CC2)C1"
RESULT: 46

QUERY: Please supply the value of reported inhibition at 10 µM for the item "COc1ccc(C(=O)N2CCC3(CC2)CC(C(=O)NCc2ccccc2)=NO3)cc1"
RESULT: 57

QUERY: Please supply the value of reported inhibition at 10 µM for the item COc1ccc(S(=O)(=O)N2CCC3(CC2)CC(C(=O)NC2CCCC2OCc2ccccc2)=NO3)cc1 (centres unmarked)
RESULT: 64

QUERY: Please supply the value of reported inhibition at 10 µM for the item "O=C(NCC1CC1)C1=NOC2(CCN(C(=O)c3ccc(C(F)(F)F)c(F)c3)CC2)C1"
RESULT: 45

QUERY: Please supply the value of reported inhibition at 10 µM for the item "CN(Cc1cccnc1)C(=O)C1=NOC2(CCN(S(=O)(=O)c3cccc(C(F)(F)F)c3)CC2)C1"
RESULT: 43

QUERY: Please supply the value of reported inhibition at 10 µM for the item "Cc1oc(C(C)(C)C)cc1C(=O)N1CCC2(CC1)CC(C(=O)NC1CCCC1)=NO2"
RESULT: 67

QUERY: Please supply the value of reported inhibition at 10 µM for the item "CSc1ncccc1C(=O)N1CCC2(CC1)CC(C(=O)NCC(C)C)=NO2"
RESULT: 40

QUERY: Please supply the value of reported inhibition at 10 µM for the item "O=C(NCc1ccccc1)C1=NOC2(CCN(C(=O)c3ccncc3)CC2)C1"
RESULT: 48

QUERY: Please supply the value of reported inhibition at 10 µM for the item "Cc1ccc(CNC(=O)C2=NOC3(CCN(C(=O)c4ccc(Br)cc4)CC3)C2)o1"
RESULT: 40

QUERY: Please supply the value of reported inhibition at 10 µM for the item "O=C(NCC1CC1)C1=NOC2(CCN(C(=O)c3cc(C(F)(F)F)ccc3Cl)CC2)C1"
RESULT: 40

QUERY: Please supply the value of reported inhibition at 10 µM for the item "Cc1ccc(S(=O)(=O)N2CCC3(CC2)CC(C(=O)N(CCc2ccccc2)Cc2ccccc2)=NO3)cc1"
RESULT: 64

QUERY: Please supply the value of reported inhibition at 10 µM for the item CC(Oc1ccccc1)C(=O)N1CCC2(CC1)CC(C(=O)NCc1ccccc1)=NO2 (centres unmarked)
RESULT: 50

QUERY: Please supply the value of reported inhibition at 10 µM for the item CN(C)S(=O)(=O)N1CCC2(CC1)CC(C(=O)NC(Cc1ccccc1)C(=O)OC(C)(C)C)=NO2 (centres unmarked)
RESULT: 51

QUERY: Please supply the value of reported inhibition at 10 µM for the item "CCSCCNC(=O)C1=NOC2(CCN(C(=O)c3cc(C(C)(C)C)nn3C)CC2)C1"
RESULT: 45

QUERY: Please supply the value of reported inhibition at 10 µM for the item "O=C(NCc1ccc2c(c1)OCO2)C1=NOC2(CCN(S(=O)(=O)c3ccc(Cl)s3)CC2)C1"
RESULT: 48

QUERY: Please supply the value of reported inhibition at 10 µM for the item "O=C(NCC1CC1)C1=NOC2(CCN(C(=O)c3ccc(SC(F)(F)F)cc3)CC2)C1"
RESULT: 42

QUERY: Please supply the value of reported inhibition at 10 µM for the item "CCN(CCNC(=O)C1=NOC2(CCN(S(=O)(=O)N(C)C)CC2)C1)c1cccc(C)c1"
RESULT: 40

QUERY: Please supply the value of reported inhibition at 10 µM for the item "CN(C)S(=O)(=O)N1CCC2(CC1)CC(C(=O)N1CCN(C3CCCCCC3)CC1)=NO2"
RESULT: 56

QUERY: Please supply the value of reported inhibition at 10 µM for the item "Cc1ccc(S(=O)(=O)N2CCC3(CC2)CC(C(=O)Nc2ccc(Oc4ccccc4)cc2)=NO3)cc1"
RESULT: 42

QUERY: Please supply the value of reported inhibition at 10 µM for the item O=C(NC1CCCC1OCc1ccccc1)C1=NOC2(CCN(S(=O)(=O)Cc3ccccc3)CC2)C1 (centres unmarked)
RESULT: 70

QUERY: Please supply the value of reported inhibition at 10 µM for the item "CCOC(=O)CCNC(=O)C1=NOC2(CCN(S(=O)(=O)c3ccccc3Cl)CC2)C1"
RESULT: 60

QUERY: Please supply the value of reported inhibition at 10 µM for the item "O=C(NCc1ccccc1)C1=NOC2(CCN(C(=O)c3cccc(SC(F)F)c3)CC2)C1"
RESULT: 61

QUERY: Please supply the value of reported inhibition at 10 µM for the item "O=C(NCc1ccccc1)C1=NOC2(CCN(C(=O)c3ccc(F)c(Cl)c3)CC2)C1"
RESULT: 46

QUERY: Please supply the value of reported inhibition at 10 µM for the item "O=C(NCC1CC1)C1=NOC2(CCN(C(=O)c3ccc4ccccc4c3)CC2)C1"
RESULT: 48

QUERY: Please supply the value of reported inhibition at 10 µM for the item "O=C(Nc1ccccc1)C1=NOC2(CCN(C(=O)c3cccc(Cl)c3Cl)CC2)C1"
RESULT: 41
